From: ChEMBL document CHEMBL1128563

# Test system: Human immunodeficiency virus 2
# assay protocol: Antiretroviral activity against HIV-2 infected HUT-78 cells.
# condition info: Human immunodeficiency virus 2, HuT78; read-out: Log 1/EC50 (converted)
value type: EC50 (nM)

{"columns": ["structure as smiles", "EC50 [nM]"],
 "data": [
  ["Brc1cc(CN2CCCNCCNCCCNCC2)cc(CN2CCCNCCNCCCNCC2)c1", 53.7],
  ["c1cc(CN2CCCNCCNCCCNCC2)cc(CN2CCCNCCNCCCNCC2)c1", 41.7],
  ["c1cc(CC2CNCCNCCCNCCNC2)ccc1CC1CNCCNCCCNCCNC1", 676]
]}

[1] C(CCCN1CCCNCCNCCCNCC1)CCN1CCCNCCNCCCNCC1
[2] c1cc(CN2CCCNCCNCCNCCC2)ccc1CN1CCCNCCNCCNCCC1
Q. Which of the two gives a bigger number for EC50: 1 or 2 ? Response format: the label of the selected entry.
A. 1

----------
Property: CC50; scope: individual compounds
# Test system: HuT78
# assay protocol: Cellular cytotoxicity against HUT-78 cells.
# Format: functional
# condition info: Homo sapiens
Respond with the bare value in µM.

{"columns": ["structure as smiles", "CC50, µM"],
 "data": [
  ["Cc1cc(CN2CCCNCCNCCCNCC2)c(C)cc1CN1CCCNCCNCCCNCC1", 250],
  ["c1cc(CN2CCCNCCCNCCCNCC2)cc(CN2CCCNCCCNCCCNCC2)c1", 191],
  ["c1cc(CN2CCCNCCNCCCNCC2)cc(CN2CCCNCCNCCCNCC2)c1", 422],
  ["c1ccc2c(CN3CCCNCCNCCCNCC3)cc(CN3CCCNCCNCCCNCC3)cc2c1", 208],
  ["Clc1cc(CN2CCCNCCNCCCNCC2)c(Cl)cc1CN1CCCNCCNCCCNCC1", 59],
  ["c1cc(CN2CCCNCCCNCCCNCCC2)cc(CN2CCCNCCCNCCCNCCC2)c1", 193],
  ["Clc1c(Cl)c(CN2CCCNCCNCCCNCC2)c(Cl)c(CN2CCCNCCNCCCNCC2)c1Cl", 12],
  ["c1ccc(CN2CCCNCCNCCCNCC2)c(CN2CCCNCCNCCCNCC2)c1", 169]
]}

Q. What measured CC50 goes with "Brc1c(CN2CCCNCCNCCCNCC2)cccc1CN1CCCNCCNCCCNCC1" ?
A. 144

Q. What measured CC50 goes with "c1cc(CN2CCCNCCNCCCNCC2)ccc1CN1CCCNCCNCCNCCC1" ?
A. 500

Q. What measured CC50 goes with "c1cc(CN2CCCNCCCNCCCNCCC2)ccc1CN1CCCNCCCNCCCNCCC1" ?
A. 49

Q. What measured CC50 goes with "C1CNCCNCCCN(CCCN2CCCNCCNCCCNCC2)CCNC1" ?
A. 622

Q. What measured CC50 goes with "Brc1cc(CN2CCCNCCNCCCNCC2)cc(CN2CCCNCCNCCCNCC2)c1" ?
A. 192

Q. What measured CC50 goes with "COc1cc(CN2CCCNCCNCCCNCC2)c(OC)cc1CN1CCCNCCNCCCNCC1" ?
A. 250

----------
# Tested on: HuT78
# assay protocol: Cellular cytotoxicity against HUT-78 cells.
# Assay type: functional
# condition info: Homo sapiens
Property: CC50; scope: individual compounds
Respond with the bare value in µM.

// below: answered compounds
{"columns": ["structure as smiles", "measurement target", "result"],
 "data": [
  ["Fc1c(CN2CCCNCCNCCCNCC2)cccc1CN1CCCNCCNCCCNCC1", "HuT78", 202],
  ["c1cc(CN2CCNCCCNCCNCC2)ccc1CN1CCNCCCNCCNCC1", "HuT78", 216],
  ["c1ccc2c(CN3CCCNCCNCCCNCC3)ccc(CN3CCCNCCNCCCNCC3)c2c1", "HuT78", 56],
  ["O=[N+]([O-])c1cc(CN2CCCNCCNCCCNCC2)ccc1CN1CCCNCCNCCCNCC1", "HuT78", 203],
  ["C1CNCCNCCCN(CCN2CCCNCCNCCCNCC2)CCNC1", "HuT78", 404]
]}

Now for the compound whose CC50 we want.
Q. What measured CC50 goes with "c1cc(CN2CCCNCCNCCCNCC2)nc(CN2CCCNCCNCCCNCC2)c1" ?
A. 409
